Tested on: Sindbis virus
Assay: Antiviral activity against Sindbis virus in african green monkey Vero cells assessed as reduction of virus-induced cytopathogenicity
Assay type: functional

- molecule: "CCn1c(COc2ccc(N)cc2)n[nH]c1=S"
  MIC: "> 16 µg/mL"
- molecule: "C=CCNC(=S)Nc1ccc(-c2nnc(SCc3ccc(Cl)cc3Cl)n2C)cc1"
  MIC: "> 16 µg/mL"
- molecule: "Nc1ncnc2c1ncn2C[C@H](O)CO [(S)-DHPA]"
  MIC: "> 400 µg/mL"
- molecule: "CNC(=S)Nc1ccc(-c2nnc(SCc3ccccc3)n2C)cc1"
  MIC: "> 16 µg/mL"
- molecule: "C=CCn1c(-c2ccc(NC(=S)Nc3ccccc3)cc2)n[nH]c1=S"
  MIC: "> 16 µg/mL"
- molecule: "CCCCCCNC(=S)Nc1ccc(-c2n[nH]c(=S)n2-c2ccccc2)cc1"
  MIC: "> 80 µg/mL"
- molecule: "Nc1ccc(OCc2n[nH]c(=S)n2-c2ccccc2)cc1"
  MIC: "> 80 µg/mL"
- molecule: "CCNC(=S)Nc1ccc(OCc2n[nH]c(=S)n2-c2ccccc2)cc1"
  MIC: "> 80 µg/mL"
- molecule: "CNC(=S)Nc1ccc(OCc2n[nH]c(=S)n2-c2ccccc2)cc1"
  MIC: "> 80 µg/mL"
- molecule: "S=C(Nc1ccccc1)Nc1ccc(OCc2n[nH]c(=S)n2-c2ccccc2)cc1"
  MIC: "> 16 µg/mL"
- molecule: "C=CCNC(=S)Nc1ccc(-c2n[nH]c(=S)n2CC=C)cc1"
  MIC: "> 80 µg/mL"
- molecule: "C=CCn1c(COc2ccc(NC(=S)NC)cc2)n[nH]c1=S"
  MIC: "> 80 µg/mL"
- molecule: "CCNC(=S)Nc1ccc(-c2n[nH]c(=S)n2-c2ccccc2)cc1"
  MIC: "> 80 µg/mL"
- molecule: "C=CCNC(=S)Nc1ccc(-c2n[nH]c(=S)n2C)cc1"
  MIC: "> 80 µg/mL"
- molecule: "CNC(=S)Nc1ccc(OCc2n[nH]c(=S)n2C)cc1"
  MIC: "> 80 µg/mL"
- molecule: "C=CCn1c(COc2ccc(NC(=S)Nc3ccccc3)cc2)n[nH]c1=S"
  MIC: "> 16 µg/mL"
- molecule: "C=CCn1c(COc2ccc(NC(=S)NCC)cc2)n[nH]c1=S"
  MIC: "> 80 µg/mL"
- molecule: "C=CCNC(=S)Nc1ccc(OCc2n[nH]c(=S)n2-c2ccccc2)cc1"
  MIC: "> 80 µg/mL"
- molecule: "CNC(=S)Nc1ccc(-c2n[nH]c(=S)n2C)cc1"
  MIC: "> 80 µg/mL"
- molecule: "C=CCNC(=S)Nc1ccc(OCc2n[nH]c(=S)n2CC=C)cc1"
  MIC: "> 80 µg/mL"
- molecule: "S=C(Nc1ccc(Cl)cc1)Nc1ccc(-c2n[nH]c(=S)n2-c2ccccc2)cc1"
  MIC: "> 16 µg/mL"
- molecule: "CCNC(=S)Nc1ccc(OCc2n[nH]c(=S)n2C)cc1"
  MIC: "> 80 µg/mL"
- molecule: "O=c1[nH]c(=O)n([C@H]2C[C@H](O)[C@@H](CO)O2)cc1/C=C/Br [BRIVUDINE]"
  MIC: "> 400 µg/mL"
- molecule: "CCn1c(COc2ccc(NC(=S)NC)cc2)n[nH]c1=S"
  MIC: "> 80 µg/mL"
- molecule: "Cn1c(COc2ccc(NC(=S)Nc3ccccc3)cc2)n[nH]c1=S"
  MIC: "> 80 µg/mL"
- molecule: "C=CCn1c(COc2ccc(N)cc2)n[nH]c1=S"
  MIC: "> 80 µg/mL"
- molecule: "CNC(=S)Nc1ccc(-c2n[nH]c(=S)n2-c2ccccc2)cc1"
  MIC: "> 80 µg/mL"
- molecule: "C=CCNC(=S)Nc1ccc(-c2n[nH]c(=S)n2-c2ccccc2)cc1"
  MIC: "> 400 µg/mL"
- molecule: "C=CCNC(=S)Nc1ccc(-c2n[nH]c(=S)n2CCCCCC)cc1"
  MIC: "> 16 µg/mL"
- molecule: "Cn1c(COc2ccc(N)cc2)n[nH]c1=S"
  MIC: "> 3.2 µg/mL"
- molecule: "C=CCNC(=S)Nc1ccc(OCc2n[nH]c(=S)n2CC)cc1"
  MIC: "48 µg/mL"
- molecule: "C=CCNC(=S)Nc1ccc(OCc2n[nH]c(=S)n2C)cc1"
  MIC: "> 80 µg/mL"
- molecule: "C=CCn1c(-c2ccc(NC(=S)NC)cc2)n[nH]c1=S"
  MIC: "> 80 µg/mL"
- molecule: "C=CCNC(=S)Nc1ccc(-c2n[nH]c(=S)n2CCc2ccccc2)cc1"
  MIC: "> 80 µg/mL"
